// compounds with Ki on Plasmepsin I (Plasmodium falciparum, UniProt P39898), multi-source literature
The figure you give is taken to be in nM; do not add the unit.

Solved entries:
{"columns": ["query-smiles", "target-of-assay", "numeric-result"],
 "data": [
  ["C#C/C=C/CO[C@@H](C(=O)N[C@H]1c2ccccc2C[C@H]1O)[C@H](O)[C@@H](O)[C@@H](OC/C=C/C#C)C(=O)N[C@H]1c2ccccc2C[C@H]1O", "Plasmepsin I (Plasmodium falciparum, UniProt P39898)", 32],
  ["CC(C)[C@H](NC(=O)c1ccccn1)C(=O)N[C@@H](COCc1ccc(Br)cc1)[C@@H](O)CC(=O)NCc1ccc(C#N)cc1", "Plasmepsin I (Plasmodium falciparum, UniProt P39898)", 53],
  ["COC(=O)/C=C/C=C/CO[C@@H](C(=O)N[C@H]1c2ccccc2C[C@H]1O)[C@H](O)[C@@H](O)[C@@H](OC/C=C/C=C/C(=O)OC)C(=O)N[C@H]1c2ccccc2C[C@H]1O", "Plasmepsin I (Plasmodium falciparum, UniProt P39898)", 3.7]
]}

In: Supply reported Ki belonging to this compound: CC(C)C[C@H](NC(=O)[C@H](C)NC(=O)C[C@H](O)[C@H](COCc1ccc(-c2ccccc2)cc1)NC(=O)c1c(F)cc(F)cc1F)C(N)=O
Out: 5.9

In: Supply reported Ki belonging to this compound: O=C(NNC(=O)[C@H](OC/C=C/Br)[C@H](O)[C@@H](O)[C@@H](OC/C=C/Br)C(=O)N[C@H]1c2ccccc2C[C@H]1O)c1ccccc1
Out: 261

In: Supply reported Ki belonging to this compound: CC(C)[C@H](NC(=O)c1ccccn1)C(=O)N[C@@H](COCc1ccc(Br)cc1)[C@@H](O)CC(=O)NCCNc1ccccc1
Out: 8.9

====

// compounds with Ki on Plasmepsin I (Plasmodium falciparum, UniProt P39898), multi-source literature
The figure you give is taken to be in nM; do not add the unit.

Solved entries:
{"columns": ["query-smiles", "target-of-assay", "quantity", "numeric-result"],
 "data": [
  ["COc1ccccc1-c1ccc(C[C@H](NC[C@H](O)[C@H](Cc2ccccc2)NC(=O)[C@@H](NC(=O)c2ccccn2)C(C)C)C(N)=O)cc1", "Plasmepsin I (Plasmodium falciparum, UniProt P39898)", "Ki", 437],
  ["COCCCNC(=O)C[C@H](O)[C@H](COCc1ccc(Br)cc1)NC(=O)[C@@H](NC(=O)c1ccccn1)C(C)C", "Plasmepsin I (Plasmodium falciparum, UniProt P39898)", "Ki", 49],
  ["CC(C)C[C@H](NC(=O)[C@H](C)NC(=O)C[C@H](O)[C@H](COCc1ccc(Br)cc1)NC(=O)c1ccc(Cl)c(Cl)c1)C(N)=O", "Plasmepsin I (Plasmodium falciparum, UniProt P39898)", "Ki", 32],
  ["O=C(CCc1ccccc1)NNC(=O)[C@H](OC/C=C/c1ccc2c(c1)OCO2)[C@H](O)[C@@H](O)[C@@H](OC/C=C/c1ccc2c(c1)OCO2)C(=O)N[C@H]1c2ccccc2C[C@H]1O", "Plasmepsin I (Plasmodium falciparum, UniProt P39898)", "Ki", 6],
  ["O=C(N[C@H]1c2ccccc2C[C@H]1O)[C@H](OC/C=C/c1ccccc1)[C@H](O)[C@@H](O)[C@@H](OC/C=C/c1ccccc1)C(=O)N[C@H]1c2ccccc2C[C@H]1O", "Plasmepsin I (Plasmodium falciparum, UniProt P39898)", "Ki", 1.4]
]}

In: Supply reported Ki belonging to this compound: CC(=O)c1ccc(/C=C/CO[C@@H](C(=O)NNC(=O)CCc2ccccc2)[C@H](O)[C@@H](O)[C@@H](OC/C=C/c2ccc(C(C)=O)cc2)C(=O)N[C@H]2c3ccccc3C[C@H]2O)cc1
Out: 38

In: Supply reported Ki belonging to this compound: O=C(N[C@H]1c2ccccc2C[C@H]1O)[C@H](OC/C=C/c1ccc2c(c1)OCO2)[C@H](O)[C@@H](O)[C@@H](OC/C=C/c1ccc2c(c1)OCO2)C(=O)N[C@H]1c2ccccc2C[C@H]1O
Out: 0.5
